- experimental.system: human-derived receptor TLR7 (Homo sapiens, UniProt Q9NYK1)
- Construct: host or cells: HEK-Blue hTLR7 cells (HEK293-derived reporter line)
- Sequence (Q9NYK1 27-1049): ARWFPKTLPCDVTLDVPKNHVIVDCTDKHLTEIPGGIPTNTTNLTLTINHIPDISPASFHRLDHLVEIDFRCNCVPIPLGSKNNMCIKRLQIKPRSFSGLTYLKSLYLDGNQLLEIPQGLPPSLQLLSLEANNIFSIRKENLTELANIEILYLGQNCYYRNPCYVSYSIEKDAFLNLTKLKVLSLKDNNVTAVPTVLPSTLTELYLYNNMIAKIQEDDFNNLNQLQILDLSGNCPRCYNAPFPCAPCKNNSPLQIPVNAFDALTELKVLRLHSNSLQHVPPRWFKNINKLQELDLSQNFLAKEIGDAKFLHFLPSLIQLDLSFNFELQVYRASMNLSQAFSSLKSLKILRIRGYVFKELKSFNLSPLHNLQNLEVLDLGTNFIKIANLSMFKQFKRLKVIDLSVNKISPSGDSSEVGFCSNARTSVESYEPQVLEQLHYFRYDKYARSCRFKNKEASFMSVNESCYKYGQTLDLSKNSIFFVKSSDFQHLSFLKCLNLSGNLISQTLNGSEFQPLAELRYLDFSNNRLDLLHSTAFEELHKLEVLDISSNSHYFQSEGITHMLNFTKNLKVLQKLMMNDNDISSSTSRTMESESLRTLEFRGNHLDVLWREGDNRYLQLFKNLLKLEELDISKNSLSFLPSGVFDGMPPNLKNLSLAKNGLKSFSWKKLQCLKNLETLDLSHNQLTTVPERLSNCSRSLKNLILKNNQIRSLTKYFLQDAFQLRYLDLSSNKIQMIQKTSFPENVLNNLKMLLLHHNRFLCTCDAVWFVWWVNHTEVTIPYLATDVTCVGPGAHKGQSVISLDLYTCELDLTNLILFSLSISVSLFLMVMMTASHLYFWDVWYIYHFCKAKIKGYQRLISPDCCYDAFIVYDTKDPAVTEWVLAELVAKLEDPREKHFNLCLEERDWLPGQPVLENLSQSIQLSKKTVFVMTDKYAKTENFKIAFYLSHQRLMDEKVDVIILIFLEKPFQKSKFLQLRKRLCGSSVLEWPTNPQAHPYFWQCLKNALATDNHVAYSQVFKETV
- assay.summary: Assay on agonistic activity for human-derived receptor TLR7 (HEK-Blue hTLR7 cells, HEK-Blue Detection Medium)
- Format: cell-based
- assay.context: 16 h incubation, absorbance at 655 nm, read-out: EC50
pEC50: −log10 of the molar value.
attribute.measured: pEC50

Noted for "CCCCOc1nc(N)c2[nH]c(=O)n(Cc3ccc(CN4CCN(C(=O)COC)CC4)s3)c2n1" : its pEC50 reads > 7.30

Per the record, "CSc1nc2c(N)nc3ccccc3c2n1Cc1ccc(CN2CCCC2)cc1" has pEC50 of > 7.30

The recorded pEC50 for "CCCCOc1nc(N)c2c(n1)N(Cc1ccc(Oc3ccc(CNC)cc3)cc1)CC(=O)N2" is > 7.30

Lab note: "CCCCSc1nc2c(N)nc3ccccc3c2n1Cc1ccc(CN2CCCC2)cc1" gave pEC50 of 7.00 to 7.30

Measured pEC50 of "CSc1nc2c(N)nc3ccccc3c2n1Cc1ccc(N2CCN(C)CC2)nc1" : > 7.30

Kindly note the recorded pEC50 for "Nc1nc2ccccc2c2c1nc(SCC(F)F)n2Cc1ccc(CN2CCCC2)cc1" , which is > 7.30

Entry under test: "CCCCOc1nc(N)c2c(n1)CN(Cc1ccc(CN3CCCC3)c(C)c1)C(=O)N2" . Its pEC50 was 7.00 to 7.30

Record "COc1cc(OCCN(C)C)ccc1Cn1c(SC)nc2c(N)nc3ccccc3c21" , field pEC50: 7.00 to 7.30

GET /value?item= "C=CCSc1nc2c(N)nc3ccccc3c2n1Cc1ccc(CN2CCNCC2)cc1" &field=pEC50 returns > 7.30

"C=CCSc1nc2c(N)nc3ccccc3c2n1Cc1ccc(CN2CC[C@H](F)C2)cc1" yielded pEC50 of 7.00 to 7.30

For record "COc1cc(CN2CCNCC2)ccc1Cn1c(SC)nc2c(N)nc3ccccc3c21" the listed pEC50 is 7.00 to 7.30

Summary for this molecule, "CCCCOc1nc(N)c2[nH]c(=O)n(Cc3ccc(CN4CCN(C(=O)CN)CC4)s3)c2n1" : pEC50 is > 7.30

Recorded pEC50 (molecule "COc1cc(CN(C)C)ccc1Cn1c(SC)nc2c(N)nc3ccccc3c21" ): > 7.30

Data point: "COc1cc(CN2CC[C@H](O)C2)ccc1Cn1c(SC)nc2c(N)nc3ccccc3c21" ; pEC50 = 7.00 to 7.30

The molecule listed as "CCCCOc1nc(N)c2[nH]c(=O)n(Cc3cccc(CN4CCCC4=O)c3)c2n1" has a reported pEC50 of > 7.30

----------
- experimental.system: human-derived receptor TLR7 (Homo sapiens)
- Construct: host or cells: HEK-Blue hTLR7 cells (HEK293-derived reporter line)
- assay.summary: Assay on agonistic activity for human-derived receptor TLR7 (HEK-Blue hTLR7 cells, HEK-Blue Detection Medium)
- Format: cell-based
- assay.context: 16 h incubation, absorbance at 655 nm, read-out: hTLR7 EC50
attribute.measured: pEC50
Just the number, please; pEC50 means minus log10 of the concentration in mol/L.

Sample COc1cc(CN(C)C)ccc1Cn1c(SC)nc2c(N)nc3ccccc3c21 [Example 240] ; pEC50 observed: 7.55

Briefly, pEC50 measured for CSc1nc2c(N)nc3ccccc3c2n1Cc1ccc(N2CCN(C)CC2)nc1 [Example 199] : 7.36

For CSc1nc2c(N)nc3ccccc3c2n1Cc1ccc(CN2CCCC2)cc1 [Example 40] the compound record lists pEC50 as 7.26

----------
- experimental.system: human-derived receptor TLR7 (Homo sapiens, UniProt Q9NYK1)
- Construct: host or cells: HEK-Blue hTLR7 cells (HEK293-derived reporter line)
- assay.summary: Assay on agonistic activity for human-derived receptor TLR7 (HEK-Blue hTLR7 cells, HEK-Blue Detection Medium)
- Type: cell-based
- assay.context: 16 h incubation, absorbance at 655 nm, read-out: EC50
Assignment: determine reported EC50 for the given compounds.

EC50 in this record for "CSc1nc2c(N)nc3ccccc3c2n1Cc1ccc(CN2CCNCC2)s1" : 50 to 100 nM

EC50 measured on "COc1cc(C2CCN(C)CC2)ccc1Cn1c(SC)nc2c(N)nc3ccccc3c21" = 50 to 100 nM

Form: compound = "Nc1nc2ccccc2c2c1[nH]c(=S)n2Cc1ccc(CN2CCCC2)cc1" ; EC50 = < 50 nM

Entry "COc1cc(CNC(C)C)ccc1Cn1c(SC)nc2c(N)nc3ccccc3c21" — recorded EC50 = 50 to 100 nM

Form: compound = "COc1cc(CN2CCCC2)ccc1Cn1c(SC)nc2c(N)nc3ccccc3c21" ; EC50 = < 50 nM

Lab note: measured EC50 of "CCSc1nc2c(N)nc3ccccc3c2n1Cc1ccc(CN2CCNCC2)cc1" was 50 to 100 nM

According to the records, this compound "CCCCOc1nc(N)c2c(n1)CN(Cc1ccc(C)c(CN3CCCC3)c1)C(=O)N2" displays EC50 of < 50 nM

Note to self: EC50 recorded for "C=CCCSc1nc2c(N)nc3ccccc3c2n1Cc1ccc(CN2CCCC2)cc1" was 50 to 100 nM

get_value(item= "COc1cc(CN2CC(O)C2)ccc1Cn1c(SC)nc2c(N)nc3ccccc3c21" , readout=EC50) returns 50 to 100 nM

Input "CSc1nc2c(N)nc3ccccc3c2n1Cc1ccc(CN2CCNCC2)cc1" . Output EC50: 50 to 100 nM

Input "CSc1nc2c(N)nc3ccccc3c2n1Cc1ccc(N2CCN(C)CC2)cc1" . Output EC50: < 50 nM

Query "CSc1nc2c(N)nc3ccccc3c2n1Cc1ccc(-c2cnn(CCNC3CCC3)c2)cc1" yields EC50 of 50 to 100 nM

The reported EC50 of the compound "N#CCCSc1nc2c(N)nc3ccccc3c2n1Cc1ccc(CN2CCCC2)cc1" was 50 to 100 nM

Notebook: "Nc1nc2ccccc2c2c1nc(SCCC(F)(F)F)n2Cc1ccc(CN2CCCC2)cc1" , EC50 read as < 50 nM

"CCSc1nc2c(N)nc3ccccc3c2n1Cc1ccc(CN(C)C)cc1" yielded EC50 of 50 to 100 nM

The measured EC50 associated with "CSc1nc2c(N)nc3ccccc3c2n1Cc1ccc(CN2CC(O)C2)cc1" reads 50 to 100 nM

Per the record, "Nc1nc2ccccc2c2c1nc(SCCF)n2Cc1ccc(CN2CCCC2)cc1" has EC50 of 50 to 100 nM

Lab book: EC50 of CCCCOc1nc(N)c2[nH]c(=O)n(Cc3ccc(CN4CCC(N)C4)s3)c2n1 (centres unmarked) noted as < 50 nM

Record summary for "CSc1nc2c(N)nc3ccccc3c2n1Cc1ccc(CN(C)C)cc1" : reported EC50 = 50 to 100 nM

In plain terms, "CCCCOc1nc(N)c2[nH]c(=O)n(Cc3ccc(CN4CCNCC4)s3)c2n1" has a documented EC50 of < 50 nM

EC50 in this record for "C=CCSc1nc2c(N)nc3ccccc3c2n1Cc1ccc(CN2CCCC2)cc1" : < 50 nM

Entry "Nc1nc2ccccc2c2c1nc(SCC1CC1)n2Cc1ccc(CN2CCCC2)cc1" , EC50 reported as < 50 nM

EC50 reading for "CCSc1nc2c(N)nc3ccccc3c2n1Cc1ccc(CN2CCCC2)cc1" : < 50 nM

So for "CCCCOc1nc(N)c2c(n1)CN(Cc1ccc(Cn3ccnc3)c(C)c1)C(=O)N2" , the logged EC50 turned out to be 50 to 100 nM

Lab note: "COCSc1nc2c(N)nc3ccccc3c2n1Cc1ccc(CN2CCCC2)cc1" gave EC50 of < 50 nM

Query "CCSc1nc2c(N)nc3ccccc3c2n1Cc1ccc(CN2CC(O)C2)cc1" yields EC50 of 50 to 100 nM

Item: "CSc1nc2c(N)nc3ccccc3c2n1Cc1ccc(OCCN(C)C)nc1" | EC50: 50 to 100 nM

Measured EC50 of "CCCSc1nc2c(N)nc3ccccc3c2n1Cc1ccc(CN2CCCC2)cc1" : < 50 nM

The recorded EC50 for "CCCCOc1nc(N)c2[nH]c(=O)n(Cc3ccc(CN4CCN(C(=O)CO)CC4)s3)c2n1" is < 50 nM

Data point: "CCCCOc1nc(N)c2[nH]c(=O)n(Cc3ccc(CN4CCCC4)s3)c2n1" ; EC50 = < 50 nM

Summary for this compound, "CCSc1nc2c(N)nc3ccccc3c2n1Cc1ccc(CN2CC[C@H](O)C2)cc1" : EC50 is 50 to 100 nM

Form: compound = "COc1cc(CN2CCN(C)CC2)ccc1Cn1c(SC)nc2c(N)nc3ccccc3c21" ; EC50 = 50 to 100 nM

Lab note: "CCN(CC)Cc1ccc(Cn2c(=O)[nH]c3c(N)nc4ccccc4c32)cc1C" gave EC50 of 50 to 100 nM

Record "CCCCOc1nc(N)c2c(n1)CN(Cc1ccc(C(=O)N3CCCC3)cc1)C(=O)N2" . Reported EC50: < 50 nM

Consider "CSc1nc2c(N)nc3ccccc3c2n1Cc1ccc(CNC(C)C)cc1" . Its measured EC50 is 50 to 100 nM
